Listed compounds paired with reported IC50
testedTarget: PARP7 (Homo sapiens, UniProt Q7Z3E1)
Sequence (Q7Z3E1 whole entry): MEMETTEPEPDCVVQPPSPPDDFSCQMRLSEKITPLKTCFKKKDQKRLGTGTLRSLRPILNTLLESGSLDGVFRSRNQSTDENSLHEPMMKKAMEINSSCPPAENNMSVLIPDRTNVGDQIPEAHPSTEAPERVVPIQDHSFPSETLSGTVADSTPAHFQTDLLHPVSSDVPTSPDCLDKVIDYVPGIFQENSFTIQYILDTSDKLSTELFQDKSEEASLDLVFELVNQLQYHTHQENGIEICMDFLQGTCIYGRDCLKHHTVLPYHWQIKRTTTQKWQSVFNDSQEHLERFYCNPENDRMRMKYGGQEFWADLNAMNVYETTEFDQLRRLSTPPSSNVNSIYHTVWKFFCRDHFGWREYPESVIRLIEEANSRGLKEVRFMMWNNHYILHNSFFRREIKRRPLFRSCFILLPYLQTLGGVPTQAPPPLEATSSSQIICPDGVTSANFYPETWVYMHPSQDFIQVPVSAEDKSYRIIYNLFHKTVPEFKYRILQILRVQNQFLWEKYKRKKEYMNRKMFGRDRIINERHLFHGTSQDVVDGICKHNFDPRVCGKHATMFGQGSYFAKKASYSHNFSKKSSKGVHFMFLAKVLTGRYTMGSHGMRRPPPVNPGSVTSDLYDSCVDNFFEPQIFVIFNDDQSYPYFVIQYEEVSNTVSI

# count of solved cases: 10
1. O=C([C@@H]1CCN(Cc2cc(C(F)(F)F)c(=O)[nH]n2)C1)N1CCN(c2ncc(C(F)(F)F)cn2)CC1	10 to 100 nM
2. Cc1cc2c(C(F)(F)F)cnc(N3CCN(C(=O)[C@H]4C[C@H](NC(C)(C)c5cc(C(F)(F)F)c(=O)[nH]n5)C4)CC3)c2[nH]1	< 10 nM
3. C[C@H]1CN(C(=O)[C@H]2C[C@H](NCc3c[nH]c(=O)c(C(F)(F)F)c3)C2)CCN1c1ncc(C(F)(F)F)cn1	< 10 nM
4. O=c1[nH]nc(CN[C@H]2C[C@H](C(=O)N3CCN4c5ncc(C(F)(F)F)cc5OCC[C@H]4C3)C2)cc1C(F)(F)F	10 to 100 nM
5. C[C@@H]1CN(c2ncc(C(F)(F)F)cn2)CCN1C(=O)[C@H]1C[C@H](NCc2c[nH]c(=O)c(C(F)(F)F)c2)C1	10 to 100 nM
6. O=C(C1CN(Cc2n[nH]c(=O)cc2OC2CCC2)C1)N1CCN(c2ncc(C(F)(F)F)cn2)CC1	100 to 1000 nM
7. C[C@H]1CN(C(=O)[C@@H]2CCN(Cc3cc(C(F)(F)F)c(=O)[nH]n3)C2)CCN1c1ncc(C(F)(F)F)cn1	10 to 100 nM
8. O=C([C@@H]1CCN(Cc2c[nH]c(=O)c(C(F)(F)F)c2)C1)N1CCN(c2ncc(C(F)(F)F)cn2)CC1	10 to 100 nM
9. COc1nnc(CN(C)[C@H]2C[C@H](C(=O)N3CCN(c4ncc(C(F)(F)F)cn4)CC3)C2)cc1C(F)(F)F	1000 to 10000 nM
10. CC(=O)Nc1cc(C(F)(F)F)cnc1N1CCN(C(=O)[C@H]2C[C@H](NC(C)(C)c3cc(C(F)(F)F)c(=O)[nH]n3)C2)CC1	< 10 nM

Tell me IC50 of `CCOc1cc(C(F)(F)F)cnc1N1CCN(C(=O)[C@H]2C[C@H](NC(C)(C)c3cc(C(F)(F)F)c(=O)[nH]n3)C2)CC1` when tested on PARP7 (Homo sapiens, UniProt Q7Z3E1).
10 to 100 nM

Tell me IC50 of `O=c1cc(C(F)(F)F)c(CN[C@H]2C[C@H](C(=O)N3CCN(c4ncc(C(F)(F)F)cn4)CC3)C2)n[nH]1` when tested on PARP7 (Homo sapiens, UniProt Q7Z3E1).
1000 to 10000 nM

Tell me IC50 of `O=c1[nH]nc(CN[C@H]2C[C@H](C(=O)N3CCN(c4ncc(C(F)(F)F)cn4)CC3)C2)cc1C(F)(F)F` when tested on PARP7 (Homo sapiens, UniProt Q7Z3E1).
10 to 100 nM
